Biological target: Torsin-1A (Homo sapiens) (UniProt O14656)
Sequence (O14656 whole entry, looked up): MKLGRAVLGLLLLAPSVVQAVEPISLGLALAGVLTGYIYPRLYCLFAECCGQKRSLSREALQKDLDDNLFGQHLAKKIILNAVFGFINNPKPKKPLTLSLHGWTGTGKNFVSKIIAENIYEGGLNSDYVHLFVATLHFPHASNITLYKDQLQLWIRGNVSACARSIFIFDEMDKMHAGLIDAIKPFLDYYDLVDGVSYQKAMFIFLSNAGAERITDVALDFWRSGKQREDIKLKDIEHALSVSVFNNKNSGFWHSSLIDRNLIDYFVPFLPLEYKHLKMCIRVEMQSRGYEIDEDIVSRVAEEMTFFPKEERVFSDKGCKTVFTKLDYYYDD
Assay: small-molecule binders of mutant TOR1A in lysate, primary screen, cell lysate, small-molecule microarray, COS7 lysate, 635/667 nm fluorescence (AID 1150);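 further: score pools 667 nm emission and signal to noise measuring lysate protein binding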
Settings: COS7 hTOR1A mutant lysate, 635 nm fluorescence, higher = more signal
Respond with TRUE for composite z-score values of 0.6 and above, FALSE for values below.

molecule=COCCOC(=O)N1C(=O)[C@@]2(c3cc(C#CC4=CCCCC4)ccc31)[C@H](c1ccc(O)cc1)N1[C@H](c3ccccc3)[C@H](c3ccccc3)OC(=O)[C@H]1[C@@H]2C(=O)Nc1nc2ccccc2s1 discrete_label=TRUE
molecule=Cc1c(NC(=O)/C(C#N)=C/C=C/c2ccccc2[N+](=O)[O-])c(=O)n(-c2ccccc2)n1C discrete_label=FALSE
molecule=COCCOC(=O)N1C(=O)[C@@]2(c3ccccc31)[C@H](c1ccc(OCCO)cc1)N1[C@H](c3ccccc3)[C@H](c3ccccc3)OC(=O)[C@H]1[C@@H]2C(=O)Nc1nc2ccccc2s1 discrete_label=FALSE
molecule="CC1CC/C=C\\[C@H]2OC34C=CCN(c5ccc6ccccc6c5)C(=O)[C@H]3N(C(CO)C(C)C)C(=O)[C@@H]4C2C(=O)O1 (stereo partly specified)" discrete_label=FALSE
molecule=CCOC(=O)C[C@H]1[C@H](OC(=O)Cc2ccc3c(c2)OCO3)[C@@H](NC(=O)Cc2ccc(OC)cc2)c2cc(OCCCO)ccc2N1C(=O)c1ccccc1 discrete_label=FALSE
molecule="NC(=O)N1C(=O)C2C(C1=O)C1C=C(c3ccc(CO)cc3)C2C(C2CC2)N1Cc1sc2ccccc2c1Cl (stereo unspecified)" discrete_label=TRUE
